This collection of values is drawn from PubChem BioAssay.

# composite z-score values compiled below
# test_summary: small-molecule binders of probe aNOTCH2, primary screen, biochemical, small-molecule microarray, 635/667 nm fluorescence (AID 1121);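 further: score merges feature fluorescence read at 667 nm with its signal to noise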
# reported_conditions: higher = more signal

{"compound": "O=C(CS)NCCCCCNC(=O)[C@H]1C[C@H]2C(=O)N[C@@H](Cc3ccccc3)C(=O)N2[C@H]1c1ccc(O)cc1", "composite z-score": -0.0598}
{"compound": "CCN1C(C)=C(C(=O)OC)[C@@H](c2ccccc2)N2C(=O)[C@](O)(C(=O)OC)[C@@H](c3ccccc3)C(C(=O)c3ccccc3)=C12", "composite z-score": -0.112}
{"compound": "COCCOC(=O)N1C(=O)[C@@]2(c3cc(C#CC4=CCCCC4)ccc31)[C@H](C(=O)NC[C@H](O)c1ccccc1)[C@H]1C(=O)O[C@H](c3ccccc3)[C@H](c3ccccc3)N1[C@@H]2c1ccc(OCCO)cc1", "composite z-score": -0.0986}
{"compound": "CC(C)[Si](OCC[C@H]1O[C@]2(C(=O)N(Cc3ccccc3)c3ccccc32)[C@@H](C)[C@@H]1[Si](C)(C)O)(C(C)C)C(C)C", "composite z-score": -0.148}
{"compound": "C=CCC(OC(C)=O)[C@@H]1[C@@H](N(Cc2cc3ccccc3o2)C(=O)Cc2ccc(F)cc2)c2cc(OCCCO)ccc2N1C(=O)c1ccc(-c2ccccc2)cc1 (some centres not stated)", "composite z-score": 0.0017}
{"compound": "C=CC[C@]1(C(=O)O)N=C(c2ccc(OCCCO)cc2)O[C@H]1c1ccccc1", "composite z-score": 0.0415}
{"compound": "C[C@H]1COC(=O)[C@H](Cc2ccccc2)NC(=O)[C@@H](C)COC(=O)[C@H](Cc2ccccc2)NC1=O", "composite z-score": -0.0967}
